Test system: A2780 cells
Assay: SRB binding assay, cytostasis, 48 h treatment
Assay type: cell-based
READOUT LABEL: pIC50
Scale for pIC50: -log10 of concentration given in mol/L; no unit attached.

Data request: Quick one: pIC50 of Cc1ccc(C(C)C)cc1.F[P-](F)(F)(F)(F)F.N[C@@H]1[C@@H](OCc2ccccc2)[C@H](OCc2ccccc2)[C@@H](COCc2ccccc2)O[C@H]1c1cnccn1.[Cl][Ru+] ?
Data returned: 5.42

Data request: Now give it for Cc1c(C)c(C)[c-](C)c1C.F[P-](F)(F)(F)(F)F.N[C@@H]1[C@@H](OCc2ccccc2)[C@H](OCc2ccccc2)[C@@H](COCc2ccccc2)O[C@H]1c1ccccn1.[Cl][Ir+2] too.
Data returned: 5.77

Data request: Now give it for Cc1ccc(C(C)C)cc1.F[P-](F)(F)(F)(F)F.N[C@@H]1[C@@H](OC(=O)c2ccccc2)[C@H](OC(=O)c2ccccc2)[C@@H](COC(=O)c2ccccc2)O[C@H]1c1ccccn1.[Cl][Os+] too.
Data returned: 5.07

---

System: A2780 cells
Experiment: MTT reduction assay, early toxicity, 4 h treatment
Type: cell-based
Conditions: Homo sapiens, inhibition at maximum concentration (100 μM) where no plateau, ND = not detectable, read-out: A2780 MTT Max Inhibition
Protocol: The complexes described above are intended to replace registered platinum complexes. […] An MTT reduction assay was measures the activity of mitochondrial complex I and can be used to detect toxicity. […] Cells were treated with the compounds for 4 h; then, MTT was added to a 0.5 mg/mL final concentration, and cells were incubated at 37 °C in a cell incubator for 40–60 min as a function of the cell line being assessed. […]
READOUT LABEL: inhibition at 100 µM (%)
Reply numerically in %, unit not repeated.

Data request: API: value(readout= inhibition at 100 µM, system= A2780 cells, query= N[C@@H]1[C@@H](OC(=O)c2ccccc2)[C@H](OC(=O)c2ccccc2)[C@@H](COC(=O)c2ccccc2)O[C@H]1c1ccccn1 [Complex 7a] )
Data returned: 18.6

Data request: Now give it for N[C@@H]1[C@@H](OC(=O)c2ccccc2)[C@H](OC(=O)c2ccccc2)[C@@H](COC(=O)c2ccccc2)O[C@H]1c1cccnn1 [Complex 7b] too.
Data returned: 9.12

Data request: Now give it for N[C@@H]1[C@@H](OC(=O)c2ccccc2)[C@H](OC(=O)c2ccccc2)[C@@H](COC(=O)c2ccccc2)O[C@H]1c1ncccn1 [Complex 7c] too.
Data returned: 26.3

---

Assay: Distribution coefficient (logD), n-octanol-PBS
Assay type: physicochemical
Conditions: n-octanol-PBS (pH = 7.4) system
Assign logD to each entry below.

Data request: Quick one: logD of Cc1c(C)c(C)[c-](C)c1C.F[P-](F)(F)(F)(F)F.N[C@@H]1[C@@H](OC(=O)c2ccccc2)[C@H](OC(=O)c2ccccc2)[C@@H](COC(=O)c2ccccc2)O[C@H]1c1cnccn1.[Cl][Rh+2] ?
Data returned: 1.04

Data request: Now give it for Cc1ccc(C(C)C)cc1.F[P-](F)(F)(F)(F)F.N[C@@H]1[C@@H](O)[C@H](O)[C@@H](CO)O[C@H]1c1ccccn1.[Cl][Ru+] too.
Data returned: −1.91

Data request: Now give it for Cc1c(C)c(C)[c-](C)c1C.F[P-](F)(F)(F)(F)F.N[C@@H]1[C@@H](OCc2ccccc2)[C@H](OCc2ccccc2)[C@@H](COCc2ccccc2)O[C@H]1c1ccccn1.[Cl][Rh+2] too.
Data returned: 1.64
